Biological target: T1, LNX2 PDZ2 domain (residues 334-426) (human, UniProt Q8N448 334-426)
T1 sequence: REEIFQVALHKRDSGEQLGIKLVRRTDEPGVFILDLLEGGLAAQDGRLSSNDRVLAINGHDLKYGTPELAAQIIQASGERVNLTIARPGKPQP
Experiment: MST
Where no end group is shown, it is not given here.
measurement type: Kd (µM)
Value expressed in µM; do not type the unit.

[Q] What value of Kd has been reported for the following binder? NLNSSRVLDLLV (not fully specified) [C-terminal SARS-CoV-2-E PBM P71L mutant peptide (12-mer, beta variant B.1.351)]
[A] 47
